// provenance: PubChem BioAssay (EPA / NIEHS)

- target under test: Cellular tumor antigen p53 (Homo sapiens) (UniProt P04637)
- Sequence (P04637 whole entry, looked up): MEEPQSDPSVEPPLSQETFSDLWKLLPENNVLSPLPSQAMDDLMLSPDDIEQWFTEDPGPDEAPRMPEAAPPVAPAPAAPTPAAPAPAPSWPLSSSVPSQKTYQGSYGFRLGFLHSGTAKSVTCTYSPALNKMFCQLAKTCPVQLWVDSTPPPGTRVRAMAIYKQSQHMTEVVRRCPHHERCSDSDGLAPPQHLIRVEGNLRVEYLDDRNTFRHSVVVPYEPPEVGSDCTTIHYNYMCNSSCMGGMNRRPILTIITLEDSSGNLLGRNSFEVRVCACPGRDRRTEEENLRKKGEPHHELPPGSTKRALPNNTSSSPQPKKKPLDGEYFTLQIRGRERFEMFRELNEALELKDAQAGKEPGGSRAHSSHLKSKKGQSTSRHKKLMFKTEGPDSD
- assay explanation: TOX21_p53_BLA_p3_ratio: Tox21 HCT-116 p53 Agonism Beta-lactamase Assay, Ratio, Phase 3 (AID 2283596)
Inconclusive results are not listed. Calls of active or inactive are those of the source. The calls were made as follows: active = hit-call score of the fitted dose curve at least 0.9, where 1 is the maximum; inconclusive = response in the unintended direction; inactive = score below 0.9.
Can you answer with just one of these options? active, inactive

>  <molecule>
CN(C)CCOC(=O)COc1ccc(Cl)cc1

>  <label value>
inactive

$$$$

**Query** Please share the test call associated with NS(=O)(=O)c1cc2c(cc1Cl)NC(C1CC3C=CC1C3)NS2(=O)=O (configuration not stated) .
**Result** inactive

**Query** Recorded test call requested for Cc1cccc2nccnc12
**Result** inactive

**Query** How did this test come out for COC1[C@@H](O[C@@H]2O[C@H](C)[C@@H](O[C@H]3C[C@@](C)(O)[C@H](OC(=O)CC(C)C)[C@H](C)O3)[C@H](N(C)C)[C@H]2O)[C@@H](CC=O)C[C@@H](C)[C@@H](O)/C=C/C=C/C[C@@H](C)OC(=O)C[C@H]1OC(C)=O (some centres not stated) ?
**Result** inactive

**Query** What is the recorded call for this molecule in the test? NC[C@H]1O[C@H](O[C@H]2[C@H](O)[C@@H](O[C@H]3O[C@H](CO)[C@@H](O)[C@H](N)[C@H]3O)[C@H](N)C[C@@H]2N)[C@H](N)C[C@@H]1O
**Result** inactive

**Query** Which result was noted for this molecule in the test: CC(=O)CC(=O)c1ccccc1
**Result** inactive

**Query** Kindly provide the recorded test outcome for the following molecule: O=C(c1ccccc1O)c1ccccc1O
**Result** inactive

**Query** Recorded test call requested for CN1C(C(=O)Nc2ccccn2)=C(O)c2ccccc2S1(=O)=O
**Result** inactive

**Query** Please state the recorded outcome for this molecule: N#CCc1cccc(C(F)(F)F)c1
**Result** inactive

**Query** Status in this test for CC(C)(C)C(=O)CC(=O)C(C)(C)C ?
**Result** inactive

**Query** Any idea what this test logged for CN1CCCN=C1/C=C/c1cccs1 ?
**Result** inactive

**Query** Hi, sorry to bother you, what did the test record for C=CC(=O)Nc1cc2c(Nc3ccc(F)c(Cl)c3)ncnc2cc1OCCCN1CCOCC1 ?
**Result** active

**Query** Query: recorded result category for COC(=O)c1ccccc1 in this test
**Result** inactive

**Query** GET /call?item= Cc1cn([C@H]2C[C@H](O)[C@@H](CO)O2)c(=O)[nH]c1=O returns the recorded outcome of this test.
**Result** inactive

**Query** Each molecule tested received a call. Report the one for Cc1ccsc1/C=C/C1=NCCCN1C .
**Result** inactive

**Query** What did the test return for COc1cc2c(cc1OC)-c1cc3ccc(OC)c(OC)c3c[n+]1CC2 ?
**Result** inactive

**Query** What outcome does the record of this test show for COc1ccccc1/C=C/C=O ?
**Result** inactive

**Query** Status in this test for CCN1CC(CCN2CCOCC2)C(c2ccccc2)(c2ccccc2)C1=O (configuration not stated) ?
**Result** inactive

**Query** In this assay, the call recorded for CN[C@@H]1[C@H](O)[C@H](NC)[C@H]2O[C@@]3(O)C(=O)C[C@@H](C)O[C@H]3O[C@@H]2[C@H]1O was what?
**Result** inactive

**Query** Dear all, I need the recorded test outcome for COS(=O)(=O)C(F)(F)F , thank you.
**Result** inactive

**Query** Call for entry CCC(Oc1ccccc1)C(=O)N[C@@H]1C(=O)N2[C@@H]1SC(C)(C)[C@@H]2C(=O)O (some centres not stated) :
**Result** inactive

**Query** Lab log entry: C[C@H](NCCc1ccc(O)cc1)[C@H](O)c1ccc(O)cc1 — outcome as called in the assay?
**Result** inactive
